Where do these numbers come from? They come from paper PMC6835763.

Test system: Proteus mirabilis PCM 543
Assay: MBFIC assay (biofilm formation inhibition, resazurin)
Type: cell-based
Conditions: polystyrene plates (PS), 96-well, ca. 5 × 10^8 CFU/mL in MHB II, 37 °C, 18 h, visual, triplicate
Where a SMILES comes first, the peptide text is derived from it. Bridges are numbered along the chain shown (N, C = ends). Roman numbers before positions name the chains, in order. The star is where a group is joined. Palmitoyl = CCCCCCCCCCCCCCCC(=O)*; Lauroyl = CCCCCCCCCCCC(=O)*
Measured Metric: MBFIC P. mirabilis, PS

[[record]]
compound = "CCCCCCCCCCCC(=O)N[C@@H](CCCCN)C(=O)N[C@@H](CCCCN)C(=O)N[C@@H](CSSC[C@H](NC(=O)[C@H](CCCCN)NC(=O)[C@H](CCCCN)NC(=O)CCCCCCCCCCC)C(N)=O)C(N)=O [Lipopeptide 1, C12-KKC-NH2] (I: Lauroyl-Lys-Lys-Cys-NH2 / II: Lauroyl-Lys-Lys-Cys-NH2; disulfide I:3-II:3)"
recorded_measurement = ">512/>512 μg/mL"

[[record]]
compound = "CCCCCCCCCCCCCCCC(=O)N[C@@H](CCCCN)C(=O)N[C@@H](CCCNC(=N)N)C(N)=O [Lipopeptide 8, C16-KR-NH2] (Palmitoyl-Lys-Arg-NH2)"
recorded_measurement = "512/512 μg/mL"

[[record]]
compound = "CCCCCCCCCCCCCCCC(=O)N[C@@H](CCCCN)C(=O)N[C@@H](CCCCN)C(=O)N[C@@H](CCCCN)C(N)=O [Lipopeptide 7, C16-KKK-NH2]"
recorded_measurement = "512 µg/mL"


----------
Tested on: Escherichia coli ATCC 25922
Type: cell-based
Settings: ATCC 25922, 18 h
Where a SMILES comes first, the peptide text is derived from it. Bridges are numbered along the chain shown (N, C = ends). Roman numbers before positions name the chains, in order. The star is where a group is joined. Palmitoyl = CCCCCCCCCCCCCCCC(=O)*; Myristoyl = CCCCCCCCCCCCCC(=O)*; Lauroyl = CCCCCCCCCCCC(=O)*
Measured Metric: MIC E. coli

[[record]]
molecule = "CCCCCCCCCCCCCCCC(=O)N[C@@H](CCCCN)C(=O)N[C@@H](CCCCN)C(=O)N[C@@H](CSSC[C@H](NC(=O)[C@H](CCCCN)NC(=O)[C@H](CCCCN)NC(=O)CCCCCCCCCCCCCCC)C(N)=O)C(N)=O [Lipopeptide 6, C16-KKC-NH2] (I: Palmitoyl-Lys-Lys-Cys-NH2 / II: Palmitoyl-Lys-Lys-Cys-NH2; disulfide I:3-II:3)"
recorded_measurement = "256 µg/mL"

[[record]]
molecule = "CCCCCCCCCCCCCC(=O)N[C@@H](CCCCN)C(=O)N[C@@H](CCCCN)C(=O)N[C@@H](CSSC[C@H](NC(=O)[C@H](CCCCN)NC(=O)[C@H](CCCCN)NC(=O)CCCCCCCCCCCCC)C(N)=O)C(N)=O [Lipopeptide 3, C14-KKC-NH2] (I: Myristoyl-Lys-Lys-Cys-NH2 / II: Myristoyl-Lys-Lys-Cys-NH2; disulfide I:3-II:3)"
recorded_measurement = "64 µg/mL"

[[record]]
molecule = "CCCCCCCCCCCC(=O)N[C@@H](CCCCN)C(=O)N[C@@H](CCCCN)C(=O)N[C@@H](CSSC[C@H](NC(=O)[C@H](CCCCN)NC(=O)[C@H](CCCCN)NC(=O)CCCCCCCCCCC)C(N)=O)C(N)=O [Lipopeptide 1, C12-KKC-NH2] (I: Lauroyl-Lys-Lys-Cys-NH2 / II: Lauroyl-Lys-Lys-Cys-NH2; disulfide I:3-II:3)"
recorded_measurement = "16 µg/mL"


----------
Here, each record is paired with measured MBEC P. mirabilis, CL data.
Tested on: Proteus mirabilis PCM 543
Format: cell-based
Details: PCM 543, 24 h
Where a SMILES comes first, the peptide text is derived from it. Bridges are numbered along the chain shown (N, C = ends). Roman numbers before positions name the chains, in order. The star is where a group is joined. Palmitoyl = CCCCCCCCCCCCCCCC(=O)*; Myristoyl = CCCCCCCCCCCCCC(=O)*; Lauroyl = CCCCCCCCCCCC(=O)*
Measured Metric: MBEC P. mirabilis, CL

[[record]]
compound = "CCCCCCCCCCCCCC(=O)N[C@@H](CCCCN)C(=O)N[C@@H](CCCCN)C(=O)N[C@@H](CSSC[C@H](NC(=O)[C@H](CCCCN)NC(=O)[C@H](CCCCN)NC(=O)CCCCCCCCCCCCC)C(N)=O)C(N)=O [Lipopeptide 3, C14-KKC-NH2] (I: Myristoyl-Lys-Lys-Cys-NH2 / II: Myristoyl-Lys-Lys-Cys-NH2; disulfide I:3-II:3)"
measured_metric = "MBEC P. mirabilis, CL"
recorded_measurement = "512/>512 μg/mL"

[[record]]
compound = "CCCCCCCCCCCC(=O)N[C@@H](CCCCN)C(=O)N[C@@H](CCCNC(=N)N)C(N)=O [Lipopeptide 2, C12-KR-NH2] (Lauroyl-Lys-Arg-NH2)"
measured_metric = "MBEC P. mirabilis, CL"
recorded_measurement = ">512/>512 μg/mL"

[[record]]
compound = "CCCCCCCCCCCCCCCC(=O)N[C@@H](CCCCN)C(=O)N[C@@H](CCCCN)C(=O)N[C@@H](CCCCN)C(N)=O [Lipopeptide 7, C16-KKK-NH2]"
measured_metric = "MBEC P. mirabilis, CL"
recorded_measurement = "512/>512 μg/mL"

[[record]]
compound = "CCCCCCCCCCCCCCCC(=O)N[C@@H](CCCCN)C(=O)N[C@@H](CCCCN)C(=O)N[C@@H](CSSC[C@H](NC(=O)[C@H](CCCCN)NC(=O)[C@H](CCCCN)NC(=O)CCCCCCCCCCCCCCC)C(N)=O)C(N)=O [Lipopeptide 6, C16-KKC-NH2] (I: Palmitoyl-Lys-Lys-Cys-NH2 / II: Palmitoyl-Lys-Lys-Cys-NH2; disulfide I:3-II:3)"
measured_metric = "MBEC P. mirabilis, CL"
recorded_measurement = ">512/>512 μg/mL"

[[record]]
compound = "CCCCCCCCCCCCCCCC(=O)N[C@@H](CCCCN)C(=O)NCC(=O)N[C@@H](CCCCN)C(N)=O [Lipopeptide 5, C16-KGK-NH2] (Palmitoyl-Lys-Gly-Lys-NH2)"
measured_metric = "MBEC P. mirabilis, CL"
recorded_measurement = ">512/>512 μg/mL"


----------
System: Staphylococcus epidermidis ATCC 14990
Experiment: MBFIC assay (biofilm formation inhibition, resazurin)
Type: cell-based
Conditions: polystyrene plates (PS), 96-well, ca. 5 × 10^8 CFU/mL in MHB II, 37 °C, 18 h, resazurin, visual, triplicate
Experimental: To determine the inhibitory effect of antimicrobials on the formation of biofilm on hydrophobic surfaces, the bacterial suspensions of strains (initial inoculum of ca. 5 × 10^8 CFU/mL in MHB II medium supplemented with antimicrobials) were cultured on 96-well PS at 37 °C for 18 h under aerobic conditions. […] Resazurin (final concentration per sample = 0.005%) was applied as a cell viability reagent for reading the results. […]
Where a SMILES comes first, the peptide text is derived from it. Bridges are numbered along the chain shown (N, C = ends). Roman numbers before positions name the chains, in order. The star is where a group is joined. Palmitoyl = CCCCCCCCCCCCCCCC(=O)*; Lauroyl = CCCCCCCCCCCC(=O)*
Here, each record is paired with measured MBFIC S. epidermidis, PS data.
Measured Metric: MBFIC S. epidermidis, PS (µg/mL)

[[record]]
molecule = "CCCCCCCCCCCC(=O)N[C@@H](CCCCN)C(=O)N[C@@H](CCCNC(=N)N)C(N)=O [Lipopeptide 2, C12-KR-NH2] (Lauroyl-Lys-Arg-NH2)"
tested_on = "Staphylococcus epidermidis ATCC 14990"
measured_metric = "MBFIC S. epidermidis, PS"
recorded_measurement = 16

[[record]]
molecule = "CCCCCCCCCCCCCCCC(=O)N[C@@H](CCCCN)C(=O)N[C@@H](CCCCN)C(=O)N[C@@H](CCCCN)C(N)=O [Lipopeptide 7, C16-KKK-NH2]"
tested_on = "Staphylococcus epidermidis ATCC 14990"
measured_metric = "MBFIC S. epidermidis, PS"
recorded_measurement = 8

[[record]]
molecule = "CCCCCCCCCCCCCCCC(=O)N[C@@H](CCCCN)C(=O)N[C@@H](CCCNC(=N)N)C(N)=O [Lipopeptide 8, C16-KR-NH2] (Palmitoyl-Lys-Arg-NH2)"
tested_on = "Staphylococcus epidermidis ATCC 14990"
measured_metric = "MBFIC S. epidermidis, PS"
recorded_measurement = 16

[[record]]
molecule = "CCCCCCCCCCCC(=O)N[C@@H](CCCCN)C(=O)N[C@@H](CCCCN)C(=O)N[C@@H](CSSC[C@H](NC(=O)[C@H](CCCCN)NC(=O)[C@H](CCCCN)NC(=O)CCCCCCCCCCC)C(N)=O)C(N)=O [Lipopeptide 1, C12-KKC-NH2] (I: Lauroyl-Lys-Lys-Cys-NH2 / II: Lauroyl-Lys-Lys-Cys-NH2; disulfide I:3-II:3)"
tested_on = "Staphylococcus epidermidis ATCC 14990"
measured_metric = "MBFIC S. epidermidis, PS"
recorded_measurement = 8

[[record]]
molecule = "CCCCCCCCCCCCCCCC(=O)N[C@@H](CCCCN)C(=O)NCC(=O)N[C@@H](CCCCN)C(N)=O [Lipopeptide 5, C16-KGK-NH2] (Palmitoyl-Lys-Gly-Lys-NH2)"
tested_on = "Staphylococcus epidermidis ATCC 14990"
measured_metric = "MBFIC S. epidermidis, PS"
recorded_measurement = 32

